- method.notes: qHTS assay to identify small molecule antagonists of the retinoid acid receptor (RAR) signaling pathway - cell viability counter screen (AID 1159551); also: nearly all actives have a fitted effect of over 35% in size
- condition.context: C3RL4 cells viability, ATP luminescence (CellTiter-Glo), 6 h; series mostly up to 92.4 µM
Inconclusive results are not listed. Calls of active or inactive are those of the source. Calls follow the shape of the dose curve; as a rule, active = well fitted cell-killing curve with a large enough effect in the repeat runs; inconclusive = weak or mixed curves, or effect the other way; inactive = flat fitted curve, though single readings scatter.
Field 'call' accepts T (active), F (inactive)

>  <compound>
NNC(=O)c1cccc(C(=O)NN)c1

>  <group.label>
F

$$$$
>  <compound>
Cc1ccc(O)c(C(C)(C)C)c1

>  <group.label>
F

$$$$
>  <compound>
CCN(C(=O)N(CC)c1ccccc1)c1ccccc1

>  <group.label>
F

$$$$
>  <compound>
OCCCCCCCCCCCCBr

>  <group.label>
F

$$$$
>  <compound>
CN1CCC(Nc2ncc3ncnc(Nc4ccc(F)c(Cl)c4)c3n2)CC1

>  <group.label>
F

$$$$
>  <compound>
CCOc1ccc2nc3cc(N)ccc3c(N)c2c1

>  <group.label>
F

$$$$
>  <compound>
CCc1cc(SCc2sc(-c3ccc(C(F)(F)F)cc3)nc2CN2CCN(c3ccc(OC)cc3)CC2)ccc1OCC(=O)O

>  <group.label>
F

$$$$
>  <compound>
Cc1ccc(-n2nc(C(C)(C)C)cc2NC(=O)Nc2ccc(OCCN3CCOCC3)c3ccccc23)cc1

>  <group.label>
F

$$$$
>  <compound>
CN(C)CCCOC1(Cc2ccccc2)CCCCCC1

>  <group.label>
F

$$$$
>  <compound>
O=c1[nH]cnc2nc[nH]c12

>  <group.label>
F

$$$$

Name the outcome recorded for NC(=O)CC[C@@H]1NC(=O)[C@H](Cc2ccccc2)NC(=O)[C@H](Cc2ccc(O)cc2)NC(=O)CCSSC[C@@H](C(=O)N2CCC[C@H]2C(=O)N[C@@H](CCCN=C(N)N)C(=O)NCC(N)=O)NC(=O)[C@H](CC(N)=O)NC1=O in the assay.
F

Name the outcome recorded for CCc1cc(Cc2cc(CC)cc(C(C)(C)C)c2O)c(O)c(C(C)(C)C)c1 in the assay.
T

Name the outcome recorded for CCCCCCCCCCCCCCCC(=O)OC[C@H](O)[C@H]1OC(=O)C(O)=C1O in the assay.
F

Name the outcome recorded for O=[N+]([O-])c1cc([N+](=O)[O-])c2ccc(S(=O)(=O)O)cc2c1O in the assay.
F

Name the outcome recorded for CCCCCCCC(=O)[O-].CCCCCCCC(=O)[O-].[Zn+2] in the assay.
F

Name the outcome recorded for Nc1ccc(N)c2ccccc12 in the assay.
T

Name the outcome recorded for COc1cccc2c1C(=O)c1c(O)c3c(c(O)c1C2=O)C[C@@](O)(C(=O)CO)C[C@@H]3O[C@H]1C[C@H](N)[C@H](O[C@@H]2CCCCO2)[C@H](C)O1 in the assay.
F

Name the outcome recorded for COC(=O)c1cc(Cl)ccc1OC in the assay.
F

Name the outcome recorded for O=C(N/N=C/c1ccccc1O)c1ccncc1 in the assay.
F

Name the outcome recorded for COc1c(C)c2c(c(O)c1C/C=C(\C)CCC(=O)O)C(=O)OC2 in the assay.
F

Name the outcome recorded for CC(=O)OCC(C)OC(C)=O (configuration not stated) in the assay.
F

Name the outcome recorded for CNCc1cc(F)ccc1Oc1ccc(Cl)c(Cl)c1 in the assay.
F
